Measurement target: Adenosylmethionine-8-amino-7-oxononanoate aminotransferase (Mycobacterium tuberculosis, UniProt P9WQ81)
Sequence (P9WQ81 whole entry): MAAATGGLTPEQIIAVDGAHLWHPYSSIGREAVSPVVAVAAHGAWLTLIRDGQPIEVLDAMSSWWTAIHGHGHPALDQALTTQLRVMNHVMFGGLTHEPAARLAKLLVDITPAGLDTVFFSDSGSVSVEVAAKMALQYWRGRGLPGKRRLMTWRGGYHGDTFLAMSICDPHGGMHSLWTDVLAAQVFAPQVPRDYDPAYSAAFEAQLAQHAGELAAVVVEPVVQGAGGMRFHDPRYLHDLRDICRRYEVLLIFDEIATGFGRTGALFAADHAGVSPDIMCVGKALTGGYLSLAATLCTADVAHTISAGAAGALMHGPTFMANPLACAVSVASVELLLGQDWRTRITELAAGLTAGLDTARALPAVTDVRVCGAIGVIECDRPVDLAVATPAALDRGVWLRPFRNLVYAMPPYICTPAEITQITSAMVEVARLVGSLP
Assay summary: Mycobacterium tuberculosis BioA enzyme inhibitor Measured in Biochemical System Using Plate Reader - 2163-02_Inhibitor_Dose_CherryPick_Activity.
Type: functional, Mycobacterium tuberculosis UT205
Active and inactive are the calls of the source. The rule behind the calls is not given here.
Measured property: AC50

Field request: AC50 | item: O=C(CSc1nc2ccccc2c(=O)n1-c1ccccc1)N1CCN(CCO)CC1
12.3 µM (active)

Okay, and COCCNC(=O)C[C@@H]1CC[C@@H]2[C@H](COc3ccc(NC(=O)Nc4cccc(F)c4)cc3C(=O)N2C)O1 ?
4.17 µM (active)

Again, but for CO[C@H]1CN(C)C(=O)c2ccc(NC(C)=O)cc2OC[C@@H](C)N(C(=O)c2ccc(F)cc2)C[C@H]1C
11.5 µM (active)

Try O=C(CSc1nc2c(c(=O)n1-c1ccccc1)SCC2)N1CCN(c2ccccc2)CC1 next.
1.08 µM (active)

Values from ChEMBL document CHEMBL1201862
